B1: library; a variant is named by its letters at N, in order (parent)
chain: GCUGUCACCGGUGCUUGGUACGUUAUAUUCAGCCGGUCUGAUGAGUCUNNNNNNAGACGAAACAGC

Variants of: B1
Assay Method Text: normalized RNA/DNA level without ligand (relative to sTRSVctl = 100) (log10 (% of sTRSVctl)); HEK293T overexpressing SLC46A1; higher = less ribozyme self-cleavage, higher mRNA level
Setup Conditions: without (6R,S)-folinic acid; ligand present: no
Assay Metric: normalized RNA/DNA level without ligand (log10)

>  <Variant Name>
UAUCAG

>  <Value Reported>
1.84

$$$$
>  <Variant Name>
UGUUUG

>  <Value Reported>
1.79

$$$$
>  <Variant Name>
CCCGGG

>  <Value Reported>
2.02

$$$$
>  <Variant Name>
AAGCAG

>  <Value Reported>
1.92

$$$$
>  <Variant Name>
GGUUCA

>  <Value Reported>
1.99

$$$$
>  <Variant Name>
UCCUCU

>  <Value Reported>
2.05

$$$$
>  <Variant Name>
UUGAGG

>  <Value Reported>
1.86

$$$$
>  <Variant Name>
CAUUUA

>  <Value Reported>
1.97

$$$$
>  <Variant Name>
GCGACG

>  <Value Reported>
1.99

$$$$
>  <Variant Name>
GGUUUG

>  <Value Reported>
2.02

$$$$
>  <Variant Name>
AUUUCC

>  <Value Reported>
2.05

$$$$
>  <Variant Name>
CCUAAA

>  <Value Reported>
1.99

$$$$
>  <Variant Name>
CCCGCG

>  <Value Reported>
2.09

$$$$
>  <Variant Name>
CAGGAC

>  <Value Reported>
1.97

$$$$
>  <Variant Name>
GGUAAU

>  <Value Reported>
1.99

$$$$
>  <Variant Name>
AACAAG

>  <Value Reported>
1.92

$$$$
>  <Variant Name>
CUACCU

>  <Value Reported>
2.04

$$$$
>  <Variant Name>
GCCCGC

>  <Value Reported>
2.08

$$$$
>  <Variant Name>
CCAUUG

>  <Value Reported>
1.97

$$$$
>  <Variant Name>
UAAUCG

>  <Value Reported>
1.8

$$$$
>  <Variant Name>
UGCCAU

>  <Value Reported>
1.98

$$$$
>  <Variant Name>
UGUGGC

>  <Value Reported>
1.97

$$$$
